pIC50: −log10 of the molar value.
A set of compounds tested on Thrombin a (Homo sapiens), with measured pIC50:

| compound | system | recorded_metric | meas_value |
| --- | --- | --- | --- |
| CC(C)C[C@H](NC(=O)OCc1cccc(C(F)(F)F)c1)C(=O)N[C@@H](C[C@@H]1CCNC1=O)C(O)S(=O)(=O)O (some centres unmarked) [NK01-63] | Thrombin a (Homo sapiens) | pIC50 | < 4.00 |

From here, focus on the item given below.
Input: Give the observed pIC50 of CC(C)C[C@H](NC(=O)OCc1ccccc1Cl)C(=O)N[C@@H](C[C@@H]1CCNC1=O)C(O)S(=O)(=O)O (some centres unmarked) [EB54] for Thrombin a (Homo sapiens).
Output: < 4.00

---

molecular target: SARS-CoV-2 3CL protease (Severe acute respiratory syndrome coronavirus 2, UniProt P0DTD1); experiment: biochemical; conditions: read-out: SARS-CoV-2 3CLpro kinact/KI
recorded_metric: kinact/KI
Answer format: value, then unit.

| compound | system | meas_value |
| --- | --- | --- |
| CC(C)C[C@H](NC(=O)OCc1cccc(Cl)c1)C(=O)N[C@@H](C[C@@H]1CCNC1=O)C(O)S(=O)(=O)O (stereo partly drawn) | SARS-CoV-2 3CL protease (Severe acute respiratory syndrome coronavirus 2, UniProt P0DTD1) | 55000 M⁻¹ s⁻¹ |

Input: # return recorded kinact/KI for input CC(C)C[C@H](NC(=O)OCc1cccc(C(F)(F)F)c1)C(=O)N[C@@H](C[C@@H]1CCNC1=O)C(O)S(=O)(=O)O (stereo partly drawn)
Output: 73300 M⁻¹ s⁻¹

Input: # return recorded kinact/KI for input O=C(N[C@@H](CC1CC1)C(=O)N[C@@H](C[C@@H]1CCNC1=O)C(O)S(=O)(=O)O)OCc1ccccc1Cl (stereo partly drawn)
Output: 70000 M⁻¹ s⁻¹

---

// Inhibition at 10 µM lookup, one value per entry
molecular target: SARS-CoV-2 3CL protease (Severe acute respiratory syndrome coronavirus 2, UniProt P0DTD1); assay type: biochemical; conditions: 10 µM compound
Could you give me the number in %? Just the number is fine.

The following compounds have reported results that may help.
| given_smiles | Inhibition at 10 µM (%) |
| --- | --- |
| Cc1cnc(=S)[nH]c1 | 41 |
| Nc1nccnc1S | 21 |
| O=C(CCl)c1ccc2c(c1)CCN(C(=O)C(F)(F)F)C2 | 42 |
| COC(C)(C)CNC(=O)c1cccnc1S | 27 |
| O=C(NCc1ccc(F)c(CO)c1)c1cccnc1S | 27 |

From here, focus on the item given below.
Input: Give the observed Inhibition at 10 µM of C=CS(=O)(=O)c1nc2ccccc2s1 for SARS-CoV-2 3CL protease (Severe acute respiratory syndrome coronavirus 2, UniProt P0DTD1).
Output: 73

---

// Inhibition at 100 µM lookup, one value per entry
biological target: SARS-CoV-2 3CL protease (Severe acute respiratory syndrome coronavirus 2, UniProt P0DTD1); format: biochemical; settings: 100 µM compound

| compound | Inhibition at 100 µM |
| --- | --- |
| O=C(NCCC(O)c1ccccc1)c1cccnc1S (stereo not drawn) | 100% |
| O=C(CCl)N1CCN(Cc2ccsc2)CC1 | 86% |
| CC1(C)C(=O)Nc2ccc(C(=O)CCl)cc21 | 97% |
| Cc1cc(C(=O)CCl)c(C)n1-c1nccs1 | 100% |
| N#Cc1ccnc(S)c1 | 100% |
| CCNC(=O)N1CCC(NC(=O)c2cccnc2S)C1 (stereo not drawn) | 100% |

Input: # return recorded Inhibition at 100 µM for input CCC(=O)N1CCC(NC(=O)c2cccnc2S)C1 (stereo not drawn)
Output: 100%

Input: # return recorded Inhibition at 100 µM for input O=C(CCl)c1ccc(F)c(C(=O)CCl)c1
Output: 63%

Input: # return recorded Inhibition at 100 µM for input NC(=O)c1csc(C(=O)CCl)c1
Output: 80%

Input: # return recorded Inhibition at 100 µM for input O=C(CCl)N1CCOC(c2ccc(F)cc2)C1 (stereo not drawn)
Output: 100%
